System: hiPSCs trilineage differentiation (cardiomyocytes, hepatocytes, neural rosette-like cells)
test: ReproTracker trilineage differentiation, overall teratogenicity prediction
measurement parameters: Figure 4
measure: LOAEL compared with respective human therapeutic Cmax

compound | test result
Nc1cccc2c1CN(C1CCC(=O)NC1=O)C2=O (stereo not shown) [Lenalidomide] | equal to or below
CS(=O)(=O)c1ccc(C(=O)Nc2ccc(Cl)c(-c3ccccn3)c2)c(Cl)c1 [Vismodegib] | equal to or below
O=C1CCC(N2C(=O)c3ccccc3C2=O)C(=O)N1 (stereo not shown) [Thalidomide] | equal to or below
NC(=O)N1c2ccccc2C=Cc2ccccc21 [Carbamazepine] | equal to or below
O=P1(N(CCCl)CCCl)NCCCO1 (stereo not shown) [Cyclophosphamide] | equal to or below
Nc1cccc2c1C(=O)N(C1CCC(=O)NC1=O)C2=O (stereo not shown) [Pomalidomide] | higher
COc1ccc([C@@H]2Sc3ccccc3N(CCN(C)C)C(=O)[C@@H]2OC(C)=O)cc1 [Diltiazem] | higher
